The reported numbers originate from ChEMBL document CHEMBL4024770.

- system: Glutamate receptor ionotropic, kainate 1 (Rattus norvegicus, UniProt P22756)
- Sequence (P22756 whole entry): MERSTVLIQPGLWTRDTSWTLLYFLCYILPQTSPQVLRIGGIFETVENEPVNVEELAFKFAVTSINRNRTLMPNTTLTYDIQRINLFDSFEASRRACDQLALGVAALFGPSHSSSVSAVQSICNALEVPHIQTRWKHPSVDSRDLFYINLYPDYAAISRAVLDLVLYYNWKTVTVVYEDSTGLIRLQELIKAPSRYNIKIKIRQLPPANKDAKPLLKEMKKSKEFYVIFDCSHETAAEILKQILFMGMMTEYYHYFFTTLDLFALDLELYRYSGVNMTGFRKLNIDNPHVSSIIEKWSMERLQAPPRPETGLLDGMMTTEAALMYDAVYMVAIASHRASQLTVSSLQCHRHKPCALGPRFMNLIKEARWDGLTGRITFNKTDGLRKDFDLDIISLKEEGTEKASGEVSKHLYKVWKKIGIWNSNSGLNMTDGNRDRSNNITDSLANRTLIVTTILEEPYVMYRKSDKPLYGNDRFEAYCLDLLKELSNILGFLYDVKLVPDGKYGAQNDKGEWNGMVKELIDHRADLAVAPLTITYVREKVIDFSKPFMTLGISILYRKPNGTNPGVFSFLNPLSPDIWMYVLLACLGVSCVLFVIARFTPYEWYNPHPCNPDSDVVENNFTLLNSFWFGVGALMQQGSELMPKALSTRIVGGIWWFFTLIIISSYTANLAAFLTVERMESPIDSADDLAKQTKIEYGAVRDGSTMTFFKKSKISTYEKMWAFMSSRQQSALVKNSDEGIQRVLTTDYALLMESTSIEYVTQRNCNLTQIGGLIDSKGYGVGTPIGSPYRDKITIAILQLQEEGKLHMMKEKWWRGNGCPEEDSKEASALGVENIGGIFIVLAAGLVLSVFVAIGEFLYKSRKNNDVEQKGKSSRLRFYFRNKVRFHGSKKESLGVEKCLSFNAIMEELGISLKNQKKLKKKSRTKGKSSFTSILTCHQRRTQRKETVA
- protocol-details: Displacement of [3H]-SYM2081 from recombinant homomeric rat GluK1 (Q)1b receptor expressed in baculovirus infected Sf9 insect cell membranes by scintillation counting method
measured-parameter: Ki

stdin: Requested read-out: Ki. Entry: O=C(O)[C@H]1NCC[C@@H]1c1cccc(Cl)c1
stdout: > 100 µM

stdin: Requested read-out: Ki. Entry: O=C(O)[C@H]1NCC[C@@H]1c1cccc(B(O)O)c1
stdout: > 1000 µM

stdin: Requested read-out: Ki. Entry: O=C(O)c1cc([C@H]2CCN[C@@H]2C(=O)O)ccc1Br
stdout: > 100 µM

stdin: Requested read-out: Ki. Entry: Cc1ccc([C@H]2CCN[C@@H]2C(=O)O)cc1C(=O)O
stdout: > 100 µM

stdin: Requested read-out: Ki. Entry: Cl.O=C(O)c1cc([C@H]2CCN[C@@H]2C(=O)O)ccc1Cl
stdout: 154 µM

stdin: Requested read-out: Ki. Entry: NC(=O)c1cccc([C@H]2CCN[C@@H]2C(=O)O)c1
stdout: > 100 µM

stdin: Requested read-out: Ki. Entry: N#Cc1cccc([C@H]2CCN[C@@H]2C(=O)O)c1
stdout: > 1000 µM

stdin: Requested read-out: Ki. Entry: O=C(O)[C@H]1NCC[C@@H]1c1cccc(C(F)(F)F)c1
stdout: > 100 µM

stdin: Requested read-out: Ki. Entry: Cl.O=C(O)c1cc([C@H]2CCN[C@@H]2C(=O)O)ccc1F
stdout: 12 µM
